- target.or.test.system: human AT1 receptor (Homo sapiens)
- Sequence (P30556 whole entry): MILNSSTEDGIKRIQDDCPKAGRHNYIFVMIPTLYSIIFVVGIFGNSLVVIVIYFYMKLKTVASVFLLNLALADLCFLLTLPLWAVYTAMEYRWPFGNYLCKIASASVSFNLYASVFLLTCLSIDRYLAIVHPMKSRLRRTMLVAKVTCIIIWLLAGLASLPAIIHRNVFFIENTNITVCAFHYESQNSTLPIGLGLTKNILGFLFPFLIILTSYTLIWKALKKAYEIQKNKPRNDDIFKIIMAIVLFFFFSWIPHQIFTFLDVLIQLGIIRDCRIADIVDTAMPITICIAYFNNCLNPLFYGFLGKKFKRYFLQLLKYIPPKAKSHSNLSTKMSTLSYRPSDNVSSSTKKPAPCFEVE
measured.attribute: pKi
Entry type: numeric. Quantity: pKi, the -log10 of concentration in molar units.

Assay human AT1 receptor (Homo sapiens), sample CC(C)[C@@H](C(=O)O)N(Cc1ccc(-c2ccccc2-c2nnn[nH]2)cc1)C(=O)CCCCF [FV45] , pKi read: 7.84
